Biological target: tyramine receptor (TyrR) (Drosophila melanogaster)
Sequence (P22270 27-601): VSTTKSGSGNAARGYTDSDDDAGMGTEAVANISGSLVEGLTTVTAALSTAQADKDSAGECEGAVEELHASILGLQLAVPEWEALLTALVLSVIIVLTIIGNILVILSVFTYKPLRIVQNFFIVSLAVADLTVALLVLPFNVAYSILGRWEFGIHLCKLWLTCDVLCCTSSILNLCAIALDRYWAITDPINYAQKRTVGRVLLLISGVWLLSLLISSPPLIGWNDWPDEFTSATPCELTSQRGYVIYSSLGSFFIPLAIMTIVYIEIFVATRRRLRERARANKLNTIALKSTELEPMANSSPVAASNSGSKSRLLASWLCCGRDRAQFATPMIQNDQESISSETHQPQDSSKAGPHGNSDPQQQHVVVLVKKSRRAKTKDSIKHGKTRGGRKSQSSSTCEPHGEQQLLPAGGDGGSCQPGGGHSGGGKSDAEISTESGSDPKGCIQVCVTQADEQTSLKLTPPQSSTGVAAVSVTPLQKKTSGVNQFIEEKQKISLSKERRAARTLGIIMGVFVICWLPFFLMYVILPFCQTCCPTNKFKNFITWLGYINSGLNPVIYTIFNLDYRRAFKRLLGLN
pKd: −log10 of the molar value.
measured_quantity: pKd

molecule	value_measured
NCCc1ccc(O)cc1 [Blend 3H-tyramine, ^3H-tyramine]	~8.90

These entries and their values trace back to patent US20090099135A1.
